target: UniProt:Q72874; experiment: Inhibitory constant against HIV-1 protease was determined
attributeMeasured: log10 Ki (log10 of the value in µM)
Response schema: value (number) is log10 of Ki in units of µM.

Worked set:
| compound | attributeMeasured | measuredResult |
| --- | --- | --- |
| CC(=O)NC(CC(C)C)C(=O)N[C@@H](Cc1ccccc1)/C(O)=C(\C#N)c1ccncc1 (stereo not given in full) | log10 Ki | 2.23 |
| CC(=O)NC(CC(C)C)C(=O)N[C@@H](Cc1ccccc1)/C(O)=C(\C#N)S(=O)(=O)c1ccccc1 (stereo not given in full) | log10 Ki | 2.18 |
| CO/C(O)=C(/C#N)C(=O)[C@H](Cc1ccccc1)NC(=O)C(CC(C)C)NC(C)=O (stereo not given in full) | log10 Ki | 2.32 |
| CC(=O)NC(CC(C)C)C(=O)N[C@@H](Cc1ccccc1)/C(O)=C(\C#N)c1ccc([N+](=O)[O-])cc1 (stereo not given in full) | log10 Ki | 0.98 |

Now consider the entry below.
Form field: reported log10 Ki of CCOP(=O)(OCC)/C(C#N)=C(\O)[C@H](Cc1ccccc1)NC(=O)C(CC(C)C)NC(C)=O (stereo not given in full)
2.31

Recorded values, source ChEMBL document CHEMBL1151057.
